The measurements presented in this section are drawn from ChEMBL document CHEMBL5724796.

Please provide measured ΔTm for the entries that follow.
Molecular target: Peregrin (Homo sapiens)
Sequence (whole entry): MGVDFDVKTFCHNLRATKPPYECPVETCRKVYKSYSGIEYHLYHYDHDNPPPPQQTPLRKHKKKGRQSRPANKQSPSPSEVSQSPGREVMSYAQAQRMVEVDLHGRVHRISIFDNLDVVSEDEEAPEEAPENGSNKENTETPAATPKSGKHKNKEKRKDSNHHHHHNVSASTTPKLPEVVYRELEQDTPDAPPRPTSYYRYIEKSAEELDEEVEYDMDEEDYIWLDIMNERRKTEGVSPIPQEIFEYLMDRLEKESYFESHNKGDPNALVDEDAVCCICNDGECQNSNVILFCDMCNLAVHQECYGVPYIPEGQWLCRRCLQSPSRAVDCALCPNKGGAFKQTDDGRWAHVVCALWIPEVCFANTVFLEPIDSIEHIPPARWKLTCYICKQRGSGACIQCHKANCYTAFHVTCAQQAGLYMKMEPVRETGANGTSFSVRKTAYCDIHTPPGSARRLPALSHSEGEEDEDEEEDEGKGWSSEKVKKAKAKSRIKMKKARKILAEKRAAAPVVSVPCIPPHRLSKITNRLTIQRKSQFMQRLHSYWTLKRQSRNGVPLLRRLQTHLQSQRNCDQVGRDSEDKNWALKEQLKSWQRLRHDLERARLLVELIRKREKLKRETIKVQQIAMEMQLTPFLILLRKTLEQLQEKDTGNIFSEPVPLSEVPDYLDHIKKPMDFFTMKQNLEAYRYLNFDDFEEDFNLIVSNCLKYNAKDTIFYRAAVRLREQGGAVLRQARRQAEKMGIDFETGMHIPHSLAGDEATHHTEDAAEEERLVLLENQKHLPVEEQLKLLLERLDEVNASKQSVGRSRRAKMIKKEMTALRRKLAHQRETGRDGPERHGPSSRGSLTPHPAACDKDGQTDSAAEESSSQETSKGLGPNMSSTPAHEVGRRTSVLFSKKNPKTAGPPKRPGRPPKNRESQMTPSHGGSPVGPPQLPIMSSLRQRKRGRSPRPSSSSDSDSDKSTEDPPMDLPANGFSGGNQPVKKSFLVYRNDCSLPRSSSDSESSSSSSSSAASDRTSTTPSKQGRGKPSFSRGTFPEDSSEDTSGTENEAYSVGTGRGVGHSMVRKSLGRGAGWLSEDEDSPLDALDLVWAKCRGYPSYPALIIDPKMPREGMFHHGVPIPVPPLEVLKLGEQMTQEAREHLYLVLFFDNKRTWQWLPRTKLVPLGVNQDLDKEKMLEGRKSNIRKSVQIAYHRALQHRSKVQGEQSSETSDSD
Settings: Compound concentration 20.0 uM
Residues, ends and D or L forms follow the SMILES beside them. *: point of attachment. Cbz = O=C(OCc1ccccc1)*; CH2F = FC*
Write it as a number; the unit °C goes unstated.

What the record says about COC(=O)CC(NC(=O)C(C)NC(=O)C(NC(=O)C(CC(=O)OC)NC(=O)C(NC(=O)OCc1ccccc1)C(C)C)C(C)C)C(=O)CF (stereo not drawn) (Cbz-VD(OMe)VAD(OMe)-CH2F; configuration not given here) : ΔTm is 2.28

What the record says about O=C(C=Cc1ccc(O)cc1)c1ccc(O)cc1O : ΔTm is 0.82

What the record says about C[C@H](N)C(=O)N1C[C@H](CCCB(O)O)[C@](N)(C(=O)O)C1 : ΔTm is -0.07

What the record says about Cc1cc(Cn2c(=O)n(Cc3cnc(C)s3)c(=O)c3cc(S(=O)(=O)NC4(C)CC4)ccc32)n(C)n1 : ΔTm is -1.12

What the record says about Cc1cc(-c2ccccc2)cc(C(=O)NNS(=O)(=O)c2ccccc2)c1F : ΔTm is -1.3

What the record says about Cc1cc(C)nc(SCC(=O)Nc2ncc(Cc3cccc(OCc4cn(Cc5ccccc5)nn4)c3)s2)n1 : ΔTm is -1.46

What the record says about C[C@H](Nc1cc(Cl)nc2c1cnn2[C@@H]1O[C@H](COP(=O)(O)CP(=O)(O)O)[C@@H](O)[C@H]1O)c1ccccc1F : ΔTm is -1.02

What the record says about COc1cccc(-c2nccc3c2CN(c2ccccc2)C3=O)c1 : ΔTm is -0.63
